Form field: fold change of affinity (one value per entry).
Molecular target: T1, Human CD3eg linker (human)
T1 construct: Single chain: epsilon and gamma subunits of human CD3 joined by a 29-mer linker, Flag-tag at the C-terminus; also called recombinant human CD3
T1 chain: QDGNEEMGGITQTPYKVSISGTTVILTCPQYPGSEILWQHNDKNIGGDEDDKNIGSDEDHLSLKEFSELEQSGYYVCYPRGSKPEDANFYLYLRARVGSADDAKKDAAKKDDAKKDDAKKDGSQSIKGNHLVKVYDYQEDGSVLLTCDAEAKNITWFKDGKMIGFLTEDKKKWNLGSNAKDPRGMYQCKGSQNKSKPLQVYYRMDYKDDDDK
Experiment: Biacore SPR, vs template H183/L072
Could you kindly put the unit after your number?

binder	fold change of affinity
H183/L072 VH G26N (antibody, name in Kabat numbering, V domains shown) VH: QVQLVESGGGLVQPGRSLRLSCAASNFTFSNAWMHWVRQAPGKGLEWVAQIKDKGNAYAAYYAPSVKGRFTISRDDSKNSIYLQMNSLKTEDTAVYYCHYVHYASASTVLPAFGVDAWGQGTTVTVSS VL: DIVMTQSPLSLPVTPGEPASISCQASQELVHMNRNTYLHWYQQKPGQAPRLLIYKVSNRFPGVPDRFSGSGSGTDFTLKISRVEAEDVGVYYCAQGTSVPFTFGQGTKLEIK	0.4 fold
H183/L072 VH G52cR (antibody, name in Kabat numbering, V domains shown) VH: QVQLVESGGGLVQPGRSLRLSCAASGFTFSNAWMHWVRQAPGKGLEWVAQIKDKRNAYAAYYAPSVKGRFTISRDDSKNSIYLQMNSLKTEDTAVYYCHYVHYASASTVLPAFGVDAWGQGTTVTVSS VL: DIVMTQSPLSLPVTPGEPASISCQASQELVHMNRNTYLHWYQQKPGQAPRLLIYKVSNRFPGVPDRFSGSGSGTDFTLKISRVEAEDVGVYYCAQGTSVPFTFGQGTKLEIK	1.4 fold
H183/L072 VH Y58G (antibody, name in Kabat numbering, V domains shown) VH: QVQLVESGGGLVQPGRSLRLSCAASGFTFSNAWMHWVRQAPGKGLEWVAQIKDKGNAYAAGYAPSVKGRFTISRDDSKNSIYLQMNSLKTEDTAVYYCHYVHYASASTVLPAFGVDAWGQGTTVTVSS VL: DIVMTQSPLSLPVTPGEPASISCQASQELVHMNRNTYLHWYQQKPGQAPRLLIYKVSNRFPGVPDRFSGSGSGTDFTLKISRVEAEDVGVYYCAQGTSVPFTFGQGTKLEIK	0.3 fold
H183/L072 VH A100P (antibody, name in Kabat numbering, V domains shown) VH: QVQLVESGGGLVQPGRSLRLSCAASGFTFSNAWMHWVRQAPGKGLEWVAQIKDKGNAYAAYYAPSVKGRFTISRDDSKNSIYLQMNSLKTEDTAVYYCHYVHYASPSTVLPAFGVDAWGQGTTVTVSS VL: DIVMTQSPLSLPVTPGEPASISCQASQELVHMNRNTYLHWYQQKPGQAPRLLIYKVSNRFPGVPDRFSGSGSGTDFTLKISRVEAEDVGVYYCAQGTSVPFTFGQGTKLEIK	1.3 fold

Now consider a different binder.
Reported fold change of affinity for H183/L072 VH G26F (antibody, name in Kabat numbering, V domains shown) VH: QVQLVESGGGLVQPGRSLRLSCAASFFTFSNAWMHWVRQAPGKGLEWVAQIKDKGNAYAAYYAPSVKGRFTISRDDSKNSIYLQMNSLKTEDTAVYYCHYVHYASASTVLPAFGVDAWGQGTTVTVSS VL: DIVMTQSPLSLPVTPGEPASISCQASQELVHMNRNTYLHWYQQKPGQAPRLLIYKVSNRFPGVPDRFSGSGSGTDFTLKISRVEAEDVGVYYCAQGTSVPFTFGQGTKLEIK was 0.4 fold
